- Method Summary: Plasma kinetics after intravenous administration in rats (ICP-AES)
- Type: in vivo
- Applied Conditions: i.v., 50 μmol of total gadolinium/kg of body weight, 24 hours p.i.
Observation Type: Gd Content of Blood 24 Hours p.i. (%)
One number for each entry, in %.

# Compound, Measured Value
data = [
    ("CC(C(=O)NCC(=O)NCCCC[C@H](NC(=O)COCC(CO)(CO)CO)C(=O)NCCCC(F)(F)C(F)(F)C(F)(F)C(F)(F)C(F)(F)C(F)(F)C(F)(F)C(F)(F)F)N1CCN(CC(=O)[O-])CCN(CC(=O)[O-])CCN(CC(=O)[O-])CC1.[Gd+3] (some centres unmarked) [Gadolinium complex VI]", 2.6),
    ("CC(C(=O)NCC(=O)NCCCC[C@H](NC(=O)CO[C@H]1O[C@H](CO)[C@@H](O)[C@H](O)[C@@H]1O)C(=O)NCCCC(F)(F)C(F)(F)C(F)(F)C(F)(F)C(F)(F)C(F)(F)F)N1CCN(CC(=O)[O-])CCN(CC(=O)[O-])CCN(CC(=O)[O-])CC1.[Gd+3] (some centres unmarked) [Gadolinium complex II]", 0.0),
    ("COCCN(CCOCCC(F)(F)C(F)(F)C(F)(F)C(F)(F)C(F)(F)C(F)(F)C(F)(F)C(F)(F)F)C(=O)[C@H](CCCCNC(=O)CNC(=O)C(C)N1CCN(CC(=O)[O-])CCN(CC(=O)[O-])CCN(CC(=O)[O-])CC1)NC(=O)CO[C@H]1O[C@H](CO)[C@@H](O)[C@H](O)[C@@H]1O.[Gd+3] (some centres unmarked) [Gadolinium complex IV]", 1.8),
    ("COC[C@H]1O[C@H](OCC(=O)NC(CCCCNC(=O)CNC(=O)C(C)N2CCN(CC(=O)[O-])CCN(CC(=O)[O-])CCN(CC(=O)[O-])CC2)C(=O)N(C)CCC(F)(F)C(F)(F)C(F)(F)C(F)(F)C(F)(F)C(F)(F)C(F)(F)C(F)(F)F)[C@@H](OC)[C@@H](OC)[C@@H]1OC.[Gd+3] (some centres unmarked) [Gadolinium complex VII]", 1.2),
    ("CC(C(=O)NCC(=O)N[C@@H](CCCCNC(=O)CO[C@H]1O[C@H](CO)[C@@H](O)[C@H](O)[C@@H]1O)C(=O)N(C)CCC(F)(F)C(F)(F)C(F)(F)C(F)(F)C(F)(F)C(F)(F)C(F)(F)C(F)(F)F)N1CCN(CC(=O)[O-])CCN(CC(=O)[O-])CCN(CC(=O)[O-])CC1.[Gd+3] (some centres unmarked) [Gadolinium complex VIII]", 0.5),
]

List the reported Gd Content of Blood 24 Hours p.i. of each compound below.
1. COCCN(CCC(F)(F)C(F)(F)C(F)(F)C(F)(F)C(F)(F)C(F)(F)C(F)(F)C(F)(F)F)C(=O)[C@H](CCCCNC(=O)CNC(=O)C(C)N1CCN(CC(=O)[O-])CCN(CC(=O)[O-])CCN(CC(=O)[O-])CC1)NC(=O)CO[C@H]1O[C@H](CO)[C@@H](O)[C@H](O)[C@@H]1O.[Gd+3] (some centres unmarked) [Gadolinium complex V]
2. CC(C(=O)NCC(=O)NCCCC[C@H](NC(=O)CO[C@H]1O[C@H](CO)[C@@H](O)[C@H](O)[C@@H]1O)C(=O)NCCCOCCC(F)(F)C(F)(F)C(F)(F)C(F)(F)C(F)(F)C(F)(F)C(F)(F)C(F)(F)F)N1CCN(CC(=O)[O-])CCN(CC(=O)[O-])CCN(CC(=O)[O-])CC1.[Gd+3] (some centres unmarked) [Gadolinium complex III]
3. CC(C(=O)NCC(=O)N[C@@H](CCCCNC(=O)CO)C(=O)NCCCC(F)(F)C(F)(F)C(F)(F)C(F)(F)C(F)(F)C(F)(F)C(F)(F)C(F)(F)F)N1CCN(CC(=O)[O-])CCN(CC(=O)[O-])CCN(CC(=O)[O-])CC1.[Gd+3] (some centres unmarked) [Gadolinium complex IX]

2.1
1.6
0.5

----------
- Method Summary: Plasma kinetics after intravenous administration in rats (ICP-AES)
- Format: in vivo
- Applied Conditions: i.v., 50 μmol of total gadolinium/kg of body weight
Please note: 1.0 applies when Elimination Half-Life of Blood is 5 h or greater, and 0.0 applies otherwise.

# Molecule, Class Label
rows = [
    ("CC(C(=O)NCC(=O)NCCCC[C@H](NC(=O)COCC(CO)(CO)CO)C(=O)NCCCC(F)(F)C(F)(F)C(F)(F)C(F)(F)C(F)(F)C(F)(F)C(F)(F)C(F)(F)F)N1CCN(CC(=O)[O-])CCN(CC(=O)[O-])CCN(CC(=O)[O-])CC1.[Gd+3] (some centres unmarked) [Gadolinium complex VI]", 1.0),
    ("CC(C(=O)NCC(=O)N[C@@H](CCCCNC(=O)CO)C(=O)NCCCC(F)(F)C(F)(F)C(F)(F)C(F)(F)C(F)(F)C(F)(F)C(F)(F)C(F)(F)F)N1CCN(CC(=O)[O-])CCN(CC(=O)[O-])CCN(CC(=O)[O-])CC1.[Gd+3] (some centres unmarked) [Gadolinium complex IX]", 0.0),
    ("COC[C@H]1O[C@H](OCC(=O)NC(CCCCNC(=O)CNC(=O)C(C)N2CCN(CC(=O)[O-])CCN(CC(=O)[O-])CCN(CC(=O)[O-])CC2)C(=O)N(C)CCC(F)(F)C(F)(F)C(F)(F)C(F)(F)C(F)(F)C(F)(F)C(F)(F)C(F)(F)F)[C@@H](OC)[C@@H](OC)[C@@H]1OC.[Gd+3] (some centres unmarked) [Gadolinium complex VII]", 1.0),
]

Is Elimination Half-Life of Blood for CC(C(=O)NCC(=O)NCCCC[C@H](NC(=O)CO[C@H]1O[C@H](CO)[C@@H](O)[C@H](O)[C@@H]1O)C(=O)NCCCOCCC(F)(F)C(F)(F)C(F)(F)C(F)(F)C(F)(F)C(F)(F)C(F)(F)C(F)(F)F)N1CCN(CC(=O)[O-])CCN(CC(=O)[O-])CCN(CC(=O)[O-])CC1.[Gd+3] (some centres unmarked) [Gadolinium complex III] at or above 5 h?
1.0

Is Elimination Half-Life of Blood for COCCN(CCC(F)(F)C(F)(F)C(F)(F)C(F)(F)C(F)(F)C(F)(F)C(F)(F)C(F)(F)F)C(=O)[C@H](CCCCNC(=O)CNC(=O)C(C)N1CCN(CC(=O)[O-])CCN(CC(=O)[O-])CCN(CC(=O)[O-])CC1)NC(=O)CO[C@H]1O[C@H](CO)[C@@H](O)[C@H](O)[C@@H]1O.[Gd+3] (some centres unmarked) [Gadolinium complex V] at or above 5 h?
1.0

Is Elimination Half-Life of Blood for COCCN(CCOCCC(F)(F)C(F)(F)C(F)(F)C(F)(F)C(F)(F)C(F)(F)C(F)(F)C(F)(F)F)C(=O)[C@H](CCCCNC(=O)CNC(=O)C(C)N1CCN(CC(=O)[O-])CCN(CC(=O)[O-])CCN(CC(=O)[O-])CC1)NC(=O)CO[C@H]1O[C@H](CO)[C@@H](O)[C@H](O)[C@@H]1O.[Gd+3] (some centres unmarked) [Gadolinium complex IV] at or above 5 h?
1.0

Is Elimination Half-Life of Blood for CC(C(=O)NCC(=O)N[C@@H](CCCCNC(=O)CO[C@H]1O[C@H](CO)[C@@H](O)[C@H](O)[C@@H]1O)C(=O)N(C)CCC(F)(F)C(F)(F)C(F)(F)C(F)(F)C(F)(F)C(F)(F)C(F)(F)C(F)(F)F)N1CCN(CC(=O)[O-])CCN(CC(=O)[O-])CCN(CC(=O)[O-])CC1.[Gd+3] (some centres unmarked) [Gadolinium complex VIII] at or above 5 h?
0.0

----------
- Tested on: mice
- Method Summary: Acute toxicity after one-time intravenous administration in mice
- Type: in vivo
- Applied Conditions: one-time i.v., observation period of 7 days, determined preliminarily
Observation Type: LD50 Mouse

So, COCCN(CCC(F)(F)C(F)(F)C(F)(F)C(F)(F)C(F)(F)C(F)(F)C(F)(F)C(F)(F)F)C(=O)[C@H](CCCCNC(=O)CNC(=O)C(C)N1CCN(CC(=O)[O-])CCN(CC(=O)[O-])CCN(CC(=O)[O-])CC1)NC(=O)CO[C@H]1O[C@H](CO)[C@@H](O)[C@H](O)[C@@H]1O.[Gd+3] (stereo partly drawn) ? Its LD50 Mouse was 15 mmol/kg

----------
- Test system: mice
- Method Summary: Acute toxicity after one-time intravenous administration in mice
- Type: in vivo
- Applied Conditions: one-time i.v., observation period of 7 days, determined preliminarily
Please provide measured LD50 Mouse for the entries that follow.

# Molecule, Measured Value
data = [
    ("CC(C(=O)NCC(=O)N[C@@H](CCCCNC(=O)CO)C(=O)NCCCC(F)(F)C(F)(F)C(F)(F)C(F)(F)C(F)(F)C(F)(F)C(F)(F)C(F)(F)F)N1CCN(CC(=O)[O-])CCN(CC(=O)[O-])CCN(CC(=O)[O-])CC1.[Gd+3] (some centres unmarked)", ">10 mmol/kg"),
    ("CC(C(=O)NCC(=O)NCCCC[C@H](NC(=O)CO[C@H]1O[C@H](CO)[C@@H](O)[C@H](O)[C@@H]1O)C(=O)NCCCC(F)(F)C(F)(F)C(F)(F)C(F)(F)C(F)(F)C(F)(F)F)N1CCN(CC(=O)[O-])CCN(CC(=O)[O-])CCN(CC(=O)[O-])CC1.[Gd+3] (some centres unmarked)", "10 mmol/kg"),
]

Next:
// molecule CC(C(=O)NCC(=O)NCCCC[C@H](NC(=O)COCC(CO)(CO)CO)C(=O)NCCCC(F)(F)C(F)(F)C(F)(F)C(F)(F)C(F)(F)C(F)(F)C(F)(F)C(F)(F)F)N1CCN(CC(=O)[O-])CCN(CC(=O)[O-])CCN(CC(=O)[O-])CC1.[Gd+3] (some centres unmarked) , assay mice, LD50 Mouse value: >10 mmol/kg
